biological target: Thymidylate synthase (Lactobacillus casei); assay: In vitro inhibition of Lactobacillus casei Thymidylate synthase.
Attribute Measured: Ki (µM)

Compound	Unit String	Ki
O=C1OC(c2ccc(O)cc2)(c2ccc(O)c3ccccc23)c2ccccc21 (centres undefined)	µM	1.5
O=C1OC(c2ccc(O)cc2)(c2ccc(O)cc2)c2ccc3c4c(ccc1c24)CC3	µM	1.5
O=C1OC(c2ccc(O)c(Cl)c2)(c2ccc(O)c(Cl)c2)c2cc3ccccc3cc21	µM	1.5
O=C1OC(c2ccc(O)c(F)c2)(c2ccc(O)c(F)c2)c2cc3ccccc3cc21	µM	1.5

Data provenance is BindingDB's records for doi:10.1021/jm9900016.
